system: δ receptor (Rattus norvegicus)
Construct: Rat membrane synaptosome preparations (P2 fraction) were prepared as detailed previously; from tissue; host or cells: rat synaptosomal membranes (P2 fraction)
Sequence (P33533 whole entry): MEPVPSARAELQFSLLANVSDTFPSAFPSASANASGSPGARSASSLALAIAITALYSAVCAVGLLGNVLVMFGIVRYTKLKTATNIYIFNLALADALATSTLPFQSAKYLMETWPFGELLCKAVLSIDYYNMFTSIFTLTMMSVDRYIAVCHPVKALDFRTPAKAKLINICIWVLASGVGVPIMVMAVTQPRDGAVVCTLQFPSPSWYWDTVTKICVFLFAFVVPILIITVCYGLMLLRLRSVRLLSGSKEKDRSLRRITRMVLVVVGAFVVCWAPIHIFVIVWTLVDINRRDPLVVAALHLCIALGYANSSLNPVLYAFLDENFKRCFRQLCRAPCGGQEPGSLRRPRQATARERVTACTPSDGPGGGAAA
testMethodNotes: Multi-site (one- vs two-site) δ receptor binding analysis
statedConditions: low affinity δ site, Prism fit; read-out: Ki (nM) Low
Description: Rat membrane synaptosome preparations (P2 fraction) were prepared as detailed previously, which included a preincubation step to reduce the presence of endogenous ligands and binding of G proteins (33,40). […] The filters were dried at 70° C. and the radioactivity determined after an overnight incubation period in CytoScint to maximize the radioactivity detected and reduce variability between samples. […]
Non-standard residues stand in square brackets, D forms with d. Residues, ends and D or L forms follow the SMILES beside them. Dmt = Cc1cc(O)cc(C)c1C[C@H](N)C(=O)O; Tic = O=C(O)[C@@H]1Cc2ccccc2CN1
quantityKind: Ki (nM)

{"columns": ["molecule", "system", "endpointResult"],
 "data": [
  ["Cc1cc(O)cc(C)c1C[C@@H]1NC(=O)[C@@H]2Cc3ccccc3CN2C1=O [Peptide 6, c(Dmt-Tic)]", "δ receptor (Rattus norvegicus)", 9.4],
  ["Cc1cc(O)cc(C)c1C[C@H](N)C(=O)N1Cc2ccccc2C[C@H]1C(=O)N[C@@H](C)C(=O)O [Peptide 8, Dmt-Tic-Ala-OH] (H-[Dmt]-[Tic]-Ala-OH)", "δ receptor (Rattus norvegicus)", 4.8],
  ["Cc1cc(O)cc(C)c1C[C@H](N)C(=O)N1Cc2ccccc2C[C@H]1C(=O)N[C@@H](C)C(N)=O [Peptide 9, Dmt-Tic-Ala-NH2] (H-[Dmt]-[Tic]-Ala-NH2)", "δ receptor (Rattus norvegicus)", 10.7],
  ["Cc1cc(O)cc(C)c1C[C@H](N)C(=O)N1Cc2ccccc2C[C@H]1CO [Peptide 5, Dmt-Tic--CH2 OH]", "δ receptor (Rattus norvegicus)", 5.2]
]}

###

system: μ receptor (Rattus norvegicus)
Construct: Rat membrane synaptosome preparations (P2 fraction) were prepared as detailed previously; from tissue; host or cells: rat synaptosomal membranes (P2 fraction)
Sequence (P33535 whole entry): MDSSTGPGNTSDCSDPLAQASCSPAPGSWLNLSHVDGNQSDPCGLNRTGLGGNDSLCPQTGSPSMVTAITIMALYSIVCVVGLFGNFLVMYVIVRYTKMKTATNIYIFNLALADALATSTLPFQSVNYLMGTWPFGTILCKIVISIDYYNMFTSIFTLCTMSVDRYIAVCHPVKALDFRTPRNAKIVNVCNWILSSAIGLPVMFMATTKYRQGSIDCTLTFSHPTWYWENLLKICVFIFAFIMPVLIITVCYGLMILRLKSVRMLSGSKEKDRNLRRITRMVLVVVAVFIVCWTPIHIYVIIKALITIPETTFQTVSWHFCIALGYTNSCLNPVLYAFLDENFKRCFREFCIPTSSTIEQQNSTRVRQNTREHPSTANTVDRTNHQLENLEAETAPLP
testMethodNotes: μ receptor binding, rat membrane synaptosomes, [3H]DAGO
statedConditions: rat synaptosomes (P2), mean ± SEM
Description: Rat membrane synaptosome preparations (P2 fraction) were prepared as detailed previously, which included a preincubation step to reduce the presence of endogenous ligands and binding of G proteins (33,40). […] The filters were dried at 70° C. and the radioactivity determined after an overnight incubation period in CytoScint to maximize the radioactivity detected and reduce variability between samples. […]
Non-standard residues stand in square brackets, D forms with d. Residues, ends and D or L forms follow the SMILES beside them. Dmt = Cc1cc(O)cc(C)c1C[C@H](N)C(=O)O; dTic = O=C(O)[C@H]1Cc2ccccc2CN1
quantityKind: Ki (nM)

{"columns": ["compound", "quantityKind", "endpointResult"],
 "data": [
  ["O=C1N[C@@H](Cc2ccc(O)cc2)C(=O)N2Cc3ccccc3C[C@H]12 [Peptide 18, c(Tyr-D-Tic), reference compound]", "Ki", 128000],
  ["C[C@H](NC(=O)[C@H]1Cc2ccccc2CN1C(=O)[C@@H](N)Cc1ccc(O)cc1)C(=O)O [Peptide 21, Tyr-D-Tic-Ala-OH, reference compound] (H-Tyr-[dTic]-Ala-OH)", "Ki", 14000],
  ["Cc1cc(O)cc(C)c1C[C@H](N)C(=O)N1Cc2ccccc2C[C@@H]1C(=O)N[C@@H](C)C(N)=O [Peptide 11, Dmt-D-Tic-Ala-NH2] (H-[Dmt]-[dTic]-Ala-NH2)", "Ki", 5.8]
]}
